Every entry's value here was drawn from patent US20140056903A1.

# targetDesc: T1, human GFRα3 expressed with a C-terminal myc-myc-hexahistidine tag (human, UniProt O60609 32-374, biotinylated (sites not given) in ELISA format 2 and in the Octet cross-competition; not in SPR)
# T1 construct: also called hGFRα3-mmh; hGFRα3-mmH
# T1 sequence (O60609 other isoform, or with tags, fused parts or gaps limits assumed): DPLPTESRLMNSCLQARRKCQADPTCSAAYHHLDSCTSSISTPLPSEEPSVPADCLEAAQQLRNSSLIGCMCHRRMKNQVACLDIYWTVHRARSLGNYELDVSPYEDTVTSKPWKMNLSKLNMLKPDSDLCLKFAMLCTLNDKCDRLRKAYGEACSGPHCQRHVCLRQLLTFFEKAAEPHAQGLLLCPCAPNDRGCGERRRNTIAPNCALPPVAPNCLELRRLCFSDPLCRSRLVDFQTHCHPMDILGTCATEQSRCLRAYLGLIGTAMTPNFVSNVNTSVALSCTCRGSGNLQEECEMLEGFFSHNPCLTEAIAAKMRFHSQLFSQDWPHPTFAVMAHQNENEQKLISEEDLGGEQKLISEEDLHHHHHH
# assayOverview: Octet cross-competition; biotin-hGFRα3-mmH pre-saturated with first antibody H4H2295S
measurementLabel: binding response of second antibody (nm)
Provide only the numeric value, understood in nm.

Sample answers from the record:
>  <binder>
H4H2295S (antibody, human IgG4, V domains shown, human IgG4 Fc (H4H)) VH: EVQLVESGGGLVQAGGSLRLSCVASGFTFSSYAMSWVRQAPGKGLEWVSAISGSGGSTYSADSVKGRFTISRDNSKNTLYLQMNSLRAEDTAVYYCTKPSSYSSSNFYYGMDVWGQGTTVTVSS VL: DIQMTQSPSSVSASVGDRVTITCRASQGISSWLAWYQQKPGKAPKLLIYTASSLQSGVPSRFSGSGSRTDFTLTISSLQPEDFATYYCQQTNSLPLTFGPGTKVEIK

>  <quantitativeResult>
0.05

$$$$
>  <binder>
H4H2236N3 (antibody, human IgG4, V domains shown, human IgG4 Fc (H4H)) VH: EVQLLESGGNLVQPGGSLRLSCAASGFTFSSYAMTWVRQAPGKGLEWVSTISGSGTSTYYADSVKGRFTISRDNSRDTVFLQMNSLRAEDTAVYYCSKPSALRFLHWLAMDVWGQGTLVTVSS VL: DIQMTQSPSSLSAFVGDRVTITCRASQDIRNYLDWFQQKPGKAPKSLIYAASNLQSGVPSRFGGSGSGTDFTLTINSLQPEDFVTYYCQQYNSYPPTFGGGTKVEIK

>  <quantitativeResult>
0.01

$$$$
>  <binder>
H4H2352S (antibody, human IgG4, V domains shown, human IgG4 Fc (H4H); also called H4H2352S-1) VH: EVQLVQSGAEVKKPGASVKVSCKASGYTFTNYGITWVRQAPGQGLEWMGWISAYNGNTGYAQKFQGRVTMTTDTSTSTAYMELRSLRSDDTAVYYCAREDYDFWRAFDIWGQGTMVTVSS VL: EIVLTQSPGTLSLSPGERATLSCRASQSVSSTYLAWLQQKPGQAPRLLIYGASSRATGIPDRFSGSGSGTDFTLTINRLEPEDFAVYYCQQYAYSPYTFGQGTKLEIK

>  <quantitativeResult>
1.85

$$$$
>  <binder>
H4H2294S (antibody, human IgG4, V domains shown, human IgG4 Fc (H4H)) VH: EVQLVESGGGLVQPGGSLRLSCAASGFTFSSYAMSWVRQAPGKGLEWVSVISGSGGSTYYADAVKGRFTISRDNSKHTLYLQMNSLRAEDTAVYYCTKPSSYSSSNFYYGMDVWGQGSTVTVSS VL: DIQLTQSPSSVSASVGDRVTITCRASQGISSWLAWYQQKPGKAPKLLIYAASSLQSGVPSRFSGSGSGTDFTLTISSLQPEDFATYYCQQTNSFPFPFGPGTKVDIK

>  <quantitativeResult>
0.02

$$$$

Now turn to the next binder.
Would you kindly share the measured binding response of second antibody (nm) for H4H2350P (antibody, human IgG4, V domains shown, human IgG4 Fc (H4H)) VH: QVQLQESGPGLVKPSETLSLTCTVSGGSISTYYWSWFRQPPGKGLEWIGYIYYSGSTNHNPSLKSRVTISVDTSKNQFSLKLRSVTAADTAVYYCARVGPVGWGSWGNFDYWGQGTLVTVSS VL: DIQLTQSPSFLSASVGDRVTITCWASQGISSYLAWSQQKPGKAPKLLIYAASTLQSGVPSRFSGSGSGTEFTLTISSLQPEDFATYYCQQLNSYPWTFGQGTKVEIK ?
1.35
